Please respond with reported IC50 for every item in the list.
# TARGET UNDER TEST: UniProtKB P08172
# Sequence (P08172 whole entry): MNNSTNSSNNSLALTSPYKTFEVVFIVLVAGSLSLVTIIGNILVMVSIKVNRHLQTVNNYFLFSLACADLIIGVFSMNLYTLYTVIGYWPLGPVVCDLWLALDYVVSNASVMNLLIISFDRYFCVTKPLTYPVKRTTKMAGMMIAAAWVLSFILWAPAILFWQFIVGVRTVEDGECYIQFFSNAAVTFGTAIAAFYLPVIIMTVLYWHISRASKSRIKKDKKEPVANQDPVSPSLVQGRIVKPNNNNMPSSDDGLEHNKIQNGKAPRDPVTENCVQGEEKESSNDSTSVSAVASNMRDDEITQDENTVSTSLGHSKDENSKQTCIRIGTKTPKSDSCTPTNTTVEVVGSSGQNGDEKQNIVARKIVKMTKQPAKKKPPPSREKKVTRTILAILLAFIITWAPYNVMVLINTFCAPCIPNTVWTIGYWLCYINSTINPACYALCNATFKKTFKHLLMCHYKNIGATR
# EXPERIMENT: Antagonist activity at human muscarinic M2 receptor expressed in CHO cells assessed as inhibition of acetylcholine-induced calcium mobilization by FLIPR assay
# Format: functional, cell-based
Quick reminder: number only, in nM, skip the unit.

Item CC[N+](CC)(CCNC(=O)[C@H](Cc1ccc(O)cc1)NC(=O)Nc1ccc(C(=O)OC(C)C)cc1)Cc1ccc(Cl)cc1 has what recorded IC50?
311

Using the record for CC(C)OC(=O)c1ccc(NC(=O)N[C@@H](Cc2ccc(O)cc2)C(=O)NCCC[N+](C)(C)Cc2ccc(Cl)cc2)cc1 , report its IC50.
178

Using the record for CC(C)OC(=O)c1ccc(NC(=O)N[C@@H](Cc2ccc(O)cc2)C(=O)NCC[N+]2(C)CCCCCC2)cc1 , report its IC50.
328

Returns the measured IC50 for the input compound. Input: CC(C)OC(=O)c1ccc(NC(=O)N[C@@H](Cc2ccc(O)cc2)C(=O)N2CC[N+](C)(CCc3ccccc3)CC2)cc1
860

Need IC50 of CC(C)OC(=O)c1ccc(NC(=O)N[C@@H](Cc2ccc(O)cc2)C(=O)NCC[N+](C)(C)C23CC4CC(CC(C4)C2)C3)cc1 , thanks.
13.1
